Origin of values: patent US9723838B2

Test system: diamondback moth
Assay: Test against diamondback moth (leaf disc spraying)
Assay type: in vivo
Conditions: Plutella xylostella, foliar, 72 h
Experimental readout: mortality at 0.313 ppm (%)

In [3]: df
Out[3]:
                                   compound      study_system  units_symbol  assay_result
0  CC(C)(NC(=O)c1cc(Br)cc(Br)c1NC(=O)c1cc(Br)nn1-c1ncccc1Cl)C(N)=O  diamondback moth             %          81.3
1  CC(NC(=O)c1cc(F)cc(Cl)c1NC(=O)c1cc(Br)nn1-c1ncccc1Cl)C(N)=O (centres unmarked) [KC2, reference compound]  diamondback moth             %          45.8
2  CC(C)(NC(=O)c1cc(Cl)cc(Cl)c1NC(=O)c1cc(Br)nn1-c1ncccc1Cl)C(N)=O  diamondback moth             %           100
3  CC(NC(=O)c1cc(Br)cc(Br)c1NC(=O)c1cc(Br)nn1-c1ncccc1Cl)C(N)=O (centres unmarked) [KC1, reference compound]  diamondback moth             %            20
4  CC(C)(NC(=O)c1cc(Cl)cc(Cl)c1NC(=O)c1cc(Cl)nn1-c1ncccc1Cl)C(N)=O  diamondback moth             %           100
